# System: BaF3 FGFR2-BICC1 V564F cells
# TEST_SUMMARY: CellTiter-Glo cell proliferation inhibition, BaF3 FGFR2-BICC1 V564F
# Assay type: cell-based
# EXPERIMENTAL_SETUP: Mus musculus, 72 h, read-out: BaF3 FGFR2-BICC1 V564F inhibitory activity IC50
pIC50: −log10 of the molar value.
QUANTITY_MEASURED: pIC50

Example cases with answers are listed next.
COMPOUND_STRUCTURE	QUANTITY_MEASURED	DATA_VALUE
C=CC(=O)N1CC[C@H](n2nc(C#Cc3ccc4csnc4c3)c3c(N)ncc(C(=O)C4CC4)c32)C1	pIC50	9.10
C=CC(=O)N1CC[C@H](n2nc(C#Cc3ccc4c(c3)ncn4CC)c3c(N)ncc(C(=O)C4CC4)c32)C1	pIC50	9.40
C=CC(=O)N1CC[C@H](n2nc(C#Cc3cc4ncn(CC)c4cc3F)c3c(N)ncc(C(=O)C4CC4)c32)C1	pIC50	9.00
C=CC(=O)N1CC[C@H](n2nc(C#Cc3ccn4ccnc4c3)c3c(N)ncc(C(C)=O)c32)C1	pIC50	8.54

I: C=CC(=O)N1CC[C@H](n2nc(C#Cc3ccc4c(c3)ncn4CC)c3c(N)ncc(C(=O)CC)c32)C1
II: C=CC(=O)N1CC[C@H](n2nc(C#Cc3cc4ncn(C5CC5)c4cc3F)c3c(N)ncc(C(C)=O)c32)C1
III: C=CC(=O)N1CC[C@H](n2nc(C#Cc3ccc4ccnn4c3)c3c(N)ncc(C(=O)CC)c32)C1
Problem: rank_up(items): orders items by reported pIC50 in ascending numerical order. As an answer, provide the labels arranged in the order called for.
Result: I, III, II
(I: 8.60, III: 8.82, II: 9.05)

====

// FGFR1 (Homo sapiens (Human), UniProt P11362) IC50 records
QUANTITY_MEASURED: IC50 (nM)

Examples from the recorded data:
COMPOUND_STRUCTURE	DATA_VALUE
C=CC(=O)N1CC[C@H](n2nc(C#Cc3cc4ncn(C5CC5)c4cc3F)c3c(N)ncc(-c4nccs4)c32)C1	6.6
C=CC(=O)N1CC[C@H](n2nc(C#Cc3c(F)cc4c(ncn4C)c3F)c3c(N)ncc(C(C)=O)c32)C1	3.5
C=CC(=O)N1CC[C@H](n2nc(C#Cc3cc4ncn(C5CC5)c4cc3Cl)c3c(N)ncc(C(C)=O)c32)C1	4.4

1: C=CC(=O)N1CC[C@H](n2nc(C#Cc3cc4ncn(C5CC5)c4cc3F)c3c(N)ncc(C(C)=O)c32)C1
2: C=CC(=O)N1CC[C@H](n2nc(C#Cc3cc4ncn(C)c4cc3Cl)c3c(N)ncc(C(=O)C4CC4)c32)C1
3: C=CC(=O)N1CC[C@H](n2nc(C#Cc3cc4nc(C)n(C5CC5)c4cc3F)c3c(N)ncc(C(C)=O)c32)C1
Problem: In this exercise, place the 3 molecules in ascending sequence of their recorded IC50. Give the labels in the order requested.
Result: 1, 2, 3

====

# TESTED_ON: FGFR2 V564F (Homo sapiens (Human), UniProt P21802, V564F)
# Sequence (P21802 481-770 V564F): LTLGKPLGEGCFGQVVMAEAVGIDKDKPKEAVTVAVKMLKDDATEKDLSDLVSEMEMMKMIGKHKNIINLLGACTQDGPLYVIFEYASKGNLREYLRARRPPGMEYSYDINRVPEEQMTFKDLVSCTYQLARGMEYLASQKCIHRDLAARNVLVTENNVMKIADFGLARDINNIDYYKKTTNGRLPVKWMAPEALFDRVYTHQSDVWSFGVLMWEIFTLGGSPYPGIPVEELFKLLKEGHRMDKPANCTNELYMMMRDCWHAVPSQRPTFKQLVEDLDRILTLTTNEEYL
# TEST_SUMMARY: TR-FRET kinase inhibition assay, FGFR2 V564F
# Type: biochemical
# EXPERIMENTAL_SETUP: ATP Km concentration (20 μM)
pIC50: −log10 of the molar value.
QUANTITY_MEASURED: pIC50

Consider the reported pIC50 for these compounds:
COMPOUND	DATA_VALUE
C=CC(=O)N1CC[C@H](n2nc(C#Cc3cc4ncn(C5CC5)c4cc3F)c3c(N)ncc(C(C)=O)c32)C1	9.52
C=CC(=O)N1CC[C@H](n2nc(C#Cc3ccc4ccnn4c3)c3c(N)ncc(C(=O)CC)c32)C1	8.68
C=CC(=O)N1CC[C@H](n2nc(C#Cc3cc4ncn(C5CC5)c4cc3F)c3c(N)ncc(C(=O)C4CC4)c32)C1	9.00
C=CC(=O)N1CC[C@H](n2nc(C#Cc3ccc4cn(C)nc4c3)c3c(N)ncc(C(=O)C4CC4)c32)C1	9.52
C=CC(=O)N1CC[C@H](n2nc(C#Cc3c(F)cc4c(ncn4C)c3F)c3c(N)ncc(C(C)=O)c32)C1	9.10
C=CC(=O)N1CC[C@H](n2nc(C#Cc3ccc4c(c3)ncn4CC)c3c(N)ncc(C(=O)C(C)C)c32)C1	8.96

P: C=CC(=O)N1CC[C@H](n2nc(C#Cc3cc4ncn(CC)c4cc3F)c3c(N)ncc(C(=O)C4CC4)c32)C1
Q: C=CC(=O)N1CC[C@H](n2nc(C#Cc3ccc4ccnn4c3)c3c(N)ncc(C(=O)C4CC4)c32)C1
R: C=CC(=O)N1CC[C@H](n2nc(C#Cc3ccn4ccnc4c3)c3c(N)ncc(C(C)=O)c32)C1
Problem: Please list the entries, largest pIC50 first. Rank the items, then write their labels in that order.
Result: P, Q, R

A: C=CC(=O)N1CC[C@H](n2nc(C#Cc3ccc4cn(C5CC5)nc4c3)c3c(N)ncc(C(C)=O)c32)C1
B: C=CC(=O)N1CC[C@H](n2nc(C#Cc3ccc4cn(C)nc4c3)c3c(N)ncc(C(=O)CC)c32)C1
Problem: I'd appreciate it if you could identify which of A and B has the greater pIC50. Please identify the chosen entry by its label.
Result: B

P: C=CC(=O)N1CC[C@H](n2nc(C#Cc3cc4ncn(CC)c4cc3F)c3c(N)ncc(C(C)=O)c32)C1
Q: C=CC(=O)N1CC[C@H](n2nc(C#Cc3ccc4csnc4c3)c3c(N)ncc(C(=O)C4CC4)c32)C1
Problem: Looking at P and Q , which one comes out lower in pIC50 terms? Let me know the label of the one you choose.
Result: Q

I: C=CC(=O)N1CC[C@H](n2nc(C#Cc3ccc4c(c3)ncn4CC)c3c(N)ncc(C(=O)C4CC4)c32)C1
II: C=CC(=O)N1CC[C@H](n2nc(C#Cc3cc4ncn(C5CC5)c4cc3Cl)c3c(N)ncc(-c4ccn(C)n4)c32)C1
III: C=CC(=O)N1CC[C@H](n2nc(C#Cc3ccc4cn(C)nc4c3)c3c(N)ncc(C(C)=O)c32)C1
IV: C=CC(=O)N1CC[C@H](n2nc(C#Cc3cc4ncn(C5CC5)c4cc3F)c3c(N)ncc(C)c32)C1
Problem: Put the compounds in ascending order of pIC50. Order the labels as requested and list them.
Result: IV, II, I, III
(IV: 8.48, II: 8.96, I: 9.30, III: 9.52)

I: C=CC(=O)N1CC[C@H](n2nc(C#Cc3cc4ncn(CC)c4cc3F)c3c(N)ncc(C(=O)CC)c32)C1
II: C=CC(=O)N1CC[C@H](n2nc(C#Cc3ccc4csnc4c3)c3c(N)ncc(C(C)=O)c32)C1
Problem: From the items above, decide which of I and II has the lower pIC50 reading. Answer format: the label of the selected item.
Result: II
(II: 9.15, I: 9.40)

a: C=CC(=O)N1CC[C@H](n2nc(C#Cc3cc4ncn(C)c4cc3F)c3c(N)ncc(-c4cscn4)c32)C1
b: C=CC(=O)N1CC[C@H](n2nc(C#Cc3ccc4c(c3)ncn4CC)c3c(N)ncc(C(C)=O)c32)C1
Problem: Of a and b , which one carries the higher reported pIC50? Answer with the label corresponding to your selection.
Result: b
(b: 9.15, a: 8.89)

P: C=CC(=O)N1CC[C@H](n2nc(C#Cc3cc4ncn(C5CC5)c4cc3Cl)c3c(N)ncc(C(=O)C(C)C)c32)C1
Q: C=CC(=O)N1CC[C@H](n2nc(C#Cc3ccn4ccnc4c3)c3c(N)ncc(C(=O)C4CC4)c32)C1
R: C=CC(=O)N1CC[C@H](n2nc(C#Cc3cc4ncn(C)c4cc3F)c3c(N)nccc32)C1 [A, reference compound]
S: C=CC(=O)N1CC[C@H](n2nc(C#Cc3ccc4c(c3)ncn4C3CC3)c3c(N)ncc(C(=O)C(C)C)c32)C1
Problem: Number of compounds to sort: 4. Sort criterion: pIC50, ascending. Write the labels in rank order as requested.
Result: R, S, P, Q

P: C=CC(=O)N1CC[C@H](n2nc(C#Cc3cc4nc(C)n(C5CC5)c4cc3F)c3c(N)ncc(C(C)=O)c32)C1
Q: C=CC(=O)N1CC[C@H](n2nc(C#Cc3ccc4c(c3)ncn4CC)c3c(N)ncc(C(=O)CC)c32)C1
Problem: Please indicate which item has the smaller measured pIC50: P versus Q Mark your answer with the label of the selected entry.
Result: P
(P: 9.00, Q: 9.30)

Reference source for all entries: patent US20250152564A1
